Measured values drawn from paper PMC11784145 for this set.

# assay procedure: Solubility limit, turbidimetric assay
# Format: physicochemical
# conditions used: pH 5, replicate 1; upper limit 200 µM
readout: Sol 1 (solubility limit)

>  <compound>
CC(=NOCc1cccc(Cl)c1)c1c(C)cc(=O)n(O)c1O [Compound 1719]

>  <observed>
100 µM

$$$$
>  <compound>
CC(=NOCc1ccccc1C)c1c(C)cc(=O)n(O)c1O [Compound 1681]

>  <observed>
> 200 µM

$$$$
>  <compound>
CC(=NOCc1ccc(F)cc1F)c1c(C)cc(=O)n(O)c1O [Compound 1464]

>  <observed>
> 200 µM

$$$$
>  <compound>
CC(=NOCc1ccc(OCc2ccc(C(C)(C)C)cc2)cc1)c1c(C)cc(=O)n(O)c1O [Compound 1808]

>  <observed>
> 200 µM

$$$$
>  <compound>
CC(=NOCc1cc(F)ccc1F)c1c(C)cc(=O)n(O)c1O [Compound 1810]

>  <observed>
100 µM

$$$$
>  <compound>
CC(=NOCc1ccc(OCc2ccccc2)cc1)c1c(C)cc(=O)n(O)c1O [Compound 1738]

>  <observed>
> 200 µM

$$$$
>  <compound>
CC(=NOCc1ccc(F)c(F)c1)c1c(C)cc(=O)n(O)c1O [Compound 1617]

>  <observed>
> 200 µM

$$$$
>  <compound>
CC(=NOCc1ccc2ccccc2c1)c1c(C)cc(=O)n(O)c1O [Compound 1811]

>  <observed>
50 µM

$$$$
>  <compound>
CC(=NOCc1cccc(F)c1)c1c(C)cc(=O)n(O)c1O [Compound 1618]

>  <observed>
> 200 µM

$$$$

---

# assay procedure: Parallel artificial membrane permeability assay (PAMPA)
# Assay type: in vitro ADME
# conditions used: FeSSIF pH 5, replicate 1
readout: Papp 1 (PAMPA) (×10⁻⁶ cm/s)

>  <compound>
CC(=NOCc1ccc(Cl)cc1)c1c(C)cc(=O)n(O)c1O

>  <readout>
Papp 1 (PAMPA)

>  <observed>
23.2

$$$$
>  <compound>
CC(=NOCc1cccc(Br)c1)c1c(C)cc(=O)n(O)c1O

>  <readout>
Papp 1 (PAMPA)

>  <observed>
31.7

$$$$
>  <compound>
CC(=NOCc1ccc(C(F)(F)F)cc1)c1c(C)cc(=O)n(O)c1O

>  <readout>
Papp 1 (PAMPA)

>  <observed>
22.7

$$$$
>  <compound>
CC(=NOCc1ccccc1Br)c1c(C)cc(=O)n(O)c1O

>  <readout>
Papp 1 (PAMPA)

>  <observed>
37.3

$$$$
>  <compound>
COc1ccc(CON=C(C)c2c(C)cc(=O)n(O)c2O)cc1OC

>  <readout>
Papp 1 (PAMPA)

>  <observed>
57.9

$$$$
>  <compound>
CC(=NOCc1cccc(Cl)c1)c1c(C)cc(=O)n(O)c1O

>  <readout>
Papp 1 (PAMPA)

>  <observed>
48.6

$$$$
>  <compound>
CC(=NOCc1ccc(OCc2ccc(C(C)(C)C)cc2)cc1)c1c(C)cc(=O)n(O)c1O

>  <readout>
Papp 1 (PAMPA)

>  <observed>
32.2

$$$$
>  <compound>
CC(=NOCc1ccc(C)cc1)c1c(C)cc(=O)n(O)c1O

>  <readout>
Papp 1 (PAMPA)

>  <observed>
14.7

$$$$
>  <compound>
CC(=NOCc1ccc(F)cc1F)c1c(C)cc(=O)n(O)c1O

>  <readout>
Papp 1 (PAMPA)

>  <observed>
14.4

$$$$
